This collection of values is drawn from patent US11999699B2.

Molecular target: human NaV1.8 (Homo sapiens, UniProt Q9Y5Y9)
Construct: The following NaV1.8 recombinant cell line was used for recordings: HEK-NaV1.8 (NM 006514.1)
Sequence (Q9Y5Y9 whole entry): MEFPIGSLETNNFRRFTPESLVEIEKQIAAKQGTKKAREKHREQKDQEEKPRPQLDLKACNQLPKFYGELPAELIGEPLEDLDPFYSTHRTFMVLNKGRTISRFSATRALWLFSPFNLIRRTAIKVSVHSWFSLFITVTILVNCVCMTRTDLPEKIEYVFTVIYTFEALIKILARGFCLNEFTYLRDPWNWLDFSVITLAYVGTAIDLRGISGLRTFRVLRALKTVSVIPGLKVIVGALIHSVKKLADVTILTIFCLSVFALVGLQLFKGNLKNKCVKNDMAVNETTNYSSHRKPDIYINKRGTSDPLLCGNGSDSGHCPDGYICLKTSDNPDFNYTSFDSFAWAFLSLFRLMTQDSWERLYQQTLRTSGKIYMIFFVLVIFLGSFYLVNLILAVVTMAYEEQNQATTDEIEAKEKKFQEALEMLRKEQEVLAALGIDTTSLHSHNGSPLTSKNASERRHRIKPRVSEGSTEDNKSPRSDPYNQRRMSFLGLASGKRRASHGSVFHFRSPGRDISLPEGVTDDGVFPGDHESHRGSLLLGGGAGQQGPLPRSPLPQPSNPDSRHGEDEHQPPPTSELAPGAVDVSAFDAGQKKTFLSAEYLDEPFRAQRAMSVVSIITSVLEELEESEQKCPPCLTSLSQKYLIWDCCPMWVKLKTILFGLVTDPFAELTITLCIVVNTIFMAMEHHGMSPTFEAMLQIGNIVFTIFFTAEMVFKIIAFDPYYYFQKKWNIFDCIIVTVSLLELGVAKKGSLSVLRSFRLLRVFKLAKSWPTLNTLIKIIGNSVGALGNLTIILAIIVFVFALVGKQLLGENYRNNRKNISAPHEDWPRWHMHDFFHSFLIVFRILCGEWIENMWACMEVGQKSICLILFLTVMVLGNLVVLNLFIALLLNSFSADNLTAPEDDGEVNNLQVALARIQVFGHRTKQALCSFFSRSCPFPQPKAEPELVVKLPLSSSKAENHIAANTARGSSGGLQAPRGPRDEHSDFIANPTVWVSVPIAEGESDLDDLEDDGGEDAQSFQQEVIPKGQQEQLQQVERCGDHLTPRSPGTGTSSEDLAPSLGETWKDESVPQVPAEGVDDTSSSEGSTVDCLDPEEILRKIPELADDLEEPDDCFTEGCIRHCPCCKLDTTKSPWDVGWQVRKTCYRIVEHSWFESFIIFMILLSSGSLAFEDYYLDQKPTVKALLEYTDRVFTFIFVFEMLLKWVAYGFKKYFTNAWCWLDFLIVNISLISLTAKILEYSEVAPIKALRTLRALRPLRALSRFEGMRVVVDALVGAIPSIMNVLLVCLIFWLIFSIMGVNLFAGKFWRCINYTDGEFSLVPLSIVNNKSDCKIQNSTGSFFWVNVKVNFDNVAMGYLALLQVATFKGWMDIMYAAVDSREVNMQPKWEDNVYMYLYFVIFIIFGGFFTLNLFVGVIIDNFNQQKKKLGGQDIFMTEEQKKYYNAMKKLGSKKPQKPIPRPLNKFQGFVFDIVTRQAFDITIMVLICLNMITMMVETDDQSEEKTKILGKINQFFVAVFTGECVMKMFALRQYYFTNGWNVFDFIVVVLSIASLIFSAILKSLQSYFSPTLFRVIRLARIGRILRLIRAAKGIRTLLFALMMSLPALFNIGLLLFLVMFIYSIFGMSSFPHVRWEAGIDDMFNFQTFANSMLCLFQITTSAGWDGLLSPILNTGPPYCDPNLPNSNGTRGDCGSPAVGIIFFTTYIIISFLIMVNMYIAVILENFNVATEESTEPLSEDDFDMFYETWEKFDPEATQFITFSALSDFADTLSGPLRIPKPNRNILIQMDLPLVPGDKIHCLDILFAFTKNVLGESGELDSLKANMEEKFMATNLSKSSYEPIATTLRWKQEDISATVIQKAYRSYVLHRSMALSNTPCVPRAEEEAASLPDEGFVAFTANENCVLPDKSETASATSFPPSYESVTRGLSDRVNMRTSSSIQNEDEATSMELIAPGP
Sequence (Q9NY72 23-215 partner): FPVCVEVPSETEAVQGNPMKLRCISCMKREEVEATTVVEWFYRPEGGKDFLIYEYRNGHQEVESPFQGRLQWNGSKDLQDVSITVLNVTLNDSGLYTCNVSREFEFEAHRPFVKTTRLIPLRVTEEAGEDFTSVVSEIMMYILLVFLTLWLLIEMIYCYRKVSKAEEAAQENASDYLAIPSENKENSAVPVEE
Test: Electrophysiology: automated whole-cell voltage-clamp (patch clamp, Qube384) recordings of sodium currents in HEK-NaV1.8 cells
Conditions: potency data either taken from inactivated or resting state, read-out: Potency category (human NaV1.8 IC50)
pIC50: −log10 of the molar value.

compound	pIC50
Cc1c(C(C)(F)F)nn([C@@H](C)C2CC(F)(F)C2)c1C(=O)Nc1ccnc(S(C)(=O)=O)c1 [SC-222a]	6.00 to 7.00
Cc1nn(CC2CCOCC2)c(C(=O)Nc2cccc(S(N)(=O)=O)c2)c1C	5.00 to 6.00
NC(=O)c1cc(NC(=O)c2c(C(F)(F)F)c(C3CC3)nn2CC2CC(OC(F)(F)F)C2)ccn1 (single isomer, unassigned) [SC-219a]	≥ 7.00
COC1(Cn2nc(C(C)(F)F)c(C)c2C(=O)Nc2ccnc(S(N)(=O)=O)c2)CC1	5.00 to 6.00
Cc1c(C(C)(F)F)nn(CC2(C(F)(F)F)CC(F)(F)C2)c1C(=O)Nc1ccnc(S(C)(=O)=O)c1	≥ 7.00
Cc1nn(C[C@@H]2CCC(F)(F)C2)c(C(=O)Nc2ccnc(C(N)=O)n2)c1C(F)(F)F [SC-248R]	5.00 to 6.00
CS(=O)(=O)c1cccc(NC(=O)c2c(C(F)(F)F)cnn2CC2CCOCC2)c1	5.00 to 6.00
Cc1nn(C[C@@H]2CCC(F)(F)C2)c(C(=O)Nc2cncc(C(N)=O)c2)c1C(F)(F)F [SC-247R]	5.00 to 6.00

###

Target: human NaV1.8 (Homo sapiens)
Construct: The following NaV1.8 recombinant cell line was used for recordings: HEK-NaV1.8 (NM 006514.1)
Test: Electrophysiology: automated whole-cell voltage-clamp (patch clamp, Qube384) recordings of sodium currents in HEK-NaV1.8 cells
Conditions: potency data either taken from inactivated or resting state, read-out: Potency category (human NaV1.8 IC50)
pIC50: −log10 of the molar value.

molecule	pIC50
CS(=O)(=O)c1cc(NC(=O)c2c(C(F)(F)F)c(C3CC3)nn2CC2CC(OC(F)F)C2)ccn1 (stereo not drawn)	6.00 to 7.00
COc1c(C(C)(F)F)nn(CC2CCC(F)(F)C2)c1C(=O)Nc1ccnc(C(N)=O)c1 (single isomer, unassigned) [SC-271a]	6.00 to 7.00
Cc1c(C(F)(F)F)nn(CC2CCC(F)(F)C2)c1C(=O)Nc1ccnc(C(N)=O)c1 (single isomer, unassigned) [SC-118b]	≥ 7.00
NC(=O)c1cc(NC(=O)c2c(C(F)(F)F)c(C(F)F)nn2CC2CCC(F)(F)C2)ccn1 (stereo not drawn)	≥ 7.00
CS(=O)(=O)c1cccc(NC(=O)c2c(C(F)(F)F)cnn2CC2CCCC2)c1	6.00 to 7.00
Cc1cc(C(=O)Nc2cccc(S(C)(=O)=O)c2)n(CC2CCCCC2)n1	5.00 to 6.00
Cc1c(C(C)(F)F)nn(CC2(C)CCC(F)(F)C2)c1C(=O)Nc1ccnc(C(N)=O)c1 (single isomer, unassigned) [SC-214b]	≥ 7.00
CS(=O)(=O)c1cc(NC(=O)c2c(C(F)(F)F)c(OC(F)F)nn2CC2CCC(F)(F)C2)ccn1 (racemic)	≥ 7.00
NC(=O)c1cc(NC(=O)c2c(C(F)(F)F)c(C3CC3)nn2CC2CC(F)(F)C2(F)F)ccn1 (single isomer, unassigned) [SC-291a]	≥ 7.00
CC1(Cn2ncc(C(F)(F)F)c2C(=O)Nc2cccc(S(C)(=O)=O)c2)CCCCC1	≥ 7.00
CS(=O)(=O)c1cccc(NC(=O)c2c(C(F)(F)F)cnn2CC2CCCCC2)c1	≥ 7.00
Cc1nn(CC2CCC(F)(F)CC2)c(C(=O)Nc2ccc(C(N)=O)nc2)c1C(F)(F)F	6.00 to 7.00
NS(=O)(=O)c1cccc(NC(=O)c2c(C(F)(F)F)c(C3CC3)nn2CC2CCC(F)(F)CC2)c1	≥ 7.00
NC(=O)c1cc(NC(=O)c2c(C(F)(F)F)c(C3CC3)nn2C[C@@H]2CC[C@H](C(F)(F)F)O2)ccn1 (single isomer, unassigned) [SC-284b]	≥ 7.00
NC(=O)c1cc(NC(=O)c2c(C(F)(F)F)c(C3CC3)nn2C[C@@H]2CCO[C@@H]2C(F)(F)F)ccn1 (single isomer, unassigned) [SC-147a]	≥ 7.00
